- Test system: HL-60(TB) leukemia
- PROTOCOL_TEXT: NCI tumour cell line growth inhibition, 48 h
Readings of TGI for the listed molecules
ENDPOINT_NAME: TGI

INSERT INTO assay_data (molecule, measured_result) VALUES
  ('COC(=O)Nc1ccc2ccc3c(NC(=O)OC)ccc4ccc1c2c43 (tested in a mixture with another compound)', '> 50 µM'),
  ('COc1ccc(C2(CN(C)C)COc3cc(OC)c(OC)cc3C2=O)cc1OC (stereo unspecified)', '48.2 µM'),
  ('Nc1cc(N)c2nc(-c3ccccc3)c(Nc3ccc(F)cc3)nc2c1', '> 100 µM'),
  ('CC(C)=CC(=O)Cc1nc2ccccc2[nH]c1=O', '> 100 µM'),
  ('Cc1c(-c2ccccc2)c(-c2ccc(OCCN(C)C)cc2)n2ccccc12', '19.4 µM'),
  ('O=C(Nc1ccc(C(F)(F)F)cc1[N+](=O)[O-])C(=O)C(C(=O)c1ccc2ccccc2c1)C1OC(=O)c2ccccc21 (stereo unspecified)', '39.6 µM'),
  ('Cc1ccc2c(ccc3c[n+]4ccccc4c(C)c32)c1', '> 100 µM'),
  ('O=S(=O)(CC1=NC2C=CC=CC2N=C1)NCc1ccccc1 (stereo unspecified)', '> 100 µM'),
  ('CCCCCCC(N)(CCCCCC)C(=O)Nn1c(C)ccc1C', '> 100 µM'),
  ('Cc1nc2ccccc2nc1NS(=O)(=O)c1ccc(N)cc1', '> 100 µM'),
  ('C=C1C(=O)O[C@H]2[C@H]1CC/C(COC(=O)NCCc1ccc(OC)cc1)=C\CC[C@@]1(C)O[C@@H]21', '5.72 µM'),
  ('N#Cc1nc(-c2cccc(Br)c2)cc(-c2ccc(Nc3nc(N4CCCCC4)nc(N4CCCCC4)n3)cc2)c1N', '6.47 µM'),
  ('CCCCOC(=O)/C(CC(=O)C=C(C)C)=N\NS(=O)(=O)c1ccc(C)cc1', '> 100 µM'),
  ('CCN(CC)CCC(=O)Nc1cccc2c1C(=O)c1c(c(O)c3ccccc3c1O)C2=O', '> 100 µM'),
  ('c1ccc(C2=NN(c3ccccc3)C3(S2)SC(c2ccccc2)(c2ccccc2)c2ccccc23)cc1 (stereo unspecified)', '> 100 µM'),
  ('COc1ccc2c(c1)[nH]c(=O)c1c3cccnc3cn21', '1.21 µM'),
  ('COc1ccc2[nH]c3c(cnn4cnnc34)c2c1', '> 100 µM'),
  ('CSc1nc(=S)[nH]c2n[nH]c(C)c12', '> 100 µM'),
  ('O=c1c2cc(Br)ccc2oc2ccc(Br)cc12', '> 100 µM'),
  ('COC(=O)c1c/c(=N\NC(=O)CC(=O)Nc2ccccc2Cl)c2ccccc2o1', '> 100 µM'),
  ('COc1ccccc1NC(=O)C(C#N)=C(SC)SC', '> 100 µM');

====

- Tested on: HOP-92 NSCLC
- PROTOCOL_TEXT: NCI tumour cell line growth inhibition, 48 h
ENDPOINT_NAME: TGI (µM)

INSERT INTO results (compound, target_or_test_system, comparison_operator, measured_result) VALUES
  ('CC(=O)OCC(=O)[C@@]1(O)[C@H](C)C[C@H]2[C@@H]3C=C(C)C4=Cc5c(cnn5-c5ccc(F)cc5)C[C@]4(C)[C@H]3[C@@H](O)C[C@@]21C', 'HOP-92 NSCLC', '=', 5.87),
  ('C/C(C=O)=C1\C(O)C[C@]1(C)C1CC(C)(C)CC1O (stereo partly drawn)', 'HOP-92 NSCLC', '>', 100),
  ('CC(C)=CCC/C(C)=C/Cc1cc(/C=C/c2cc(O)c(CC=C(C)C)c(O)c2)cc(O)c1O', 'HOP-92 NSCLC', '=', 15.6),
  ('CCCCCCn1c(-c2ccc(C(=O)O/N=C(\N)c3ccc(OC)cc3)cc2)nc(-c2ccccc2)c1-c1ccccc1', 'HOP-92 NSCLC', '=', 2.61),
  ('O=c1c2cc(Br)ccc2oc2ccc(Br)cc12', 'HOP-92 NSCLC', '>', 100),
  ('CC1CCC2(OC1)OC1CC3C4CC=C5CC(OC6OC(CO)C(OC7OC(C)C(OC8OC(C)C(O)C(O)C8O)C(O)C7O)C(O)C6OC6OC(C)C(O)C(O)C6O)CCC5(C)C4CCC3(C)C1C2C (stereo not drawn)', 'HOP-92 NSCLC', '=', 1.9),
  ('COc1ncnc2c(NC3OC(CO)C(O)C3O)ncnc12 (stereo not drawn)', 'HOP-92 NSCLC', '=', 0.527),
  ('O=c1cc/c(=N\Nc2ccccc2)c(=O)/c1=N/Nc1ccccc1', 'HOP-92 NSCLC', '>', 50);
